# ASSAY TARGET: Sodium-dependent dopamine transporter (Rattus norvegicus, UniProt P23977)
# Sequence (P23977 whole entry): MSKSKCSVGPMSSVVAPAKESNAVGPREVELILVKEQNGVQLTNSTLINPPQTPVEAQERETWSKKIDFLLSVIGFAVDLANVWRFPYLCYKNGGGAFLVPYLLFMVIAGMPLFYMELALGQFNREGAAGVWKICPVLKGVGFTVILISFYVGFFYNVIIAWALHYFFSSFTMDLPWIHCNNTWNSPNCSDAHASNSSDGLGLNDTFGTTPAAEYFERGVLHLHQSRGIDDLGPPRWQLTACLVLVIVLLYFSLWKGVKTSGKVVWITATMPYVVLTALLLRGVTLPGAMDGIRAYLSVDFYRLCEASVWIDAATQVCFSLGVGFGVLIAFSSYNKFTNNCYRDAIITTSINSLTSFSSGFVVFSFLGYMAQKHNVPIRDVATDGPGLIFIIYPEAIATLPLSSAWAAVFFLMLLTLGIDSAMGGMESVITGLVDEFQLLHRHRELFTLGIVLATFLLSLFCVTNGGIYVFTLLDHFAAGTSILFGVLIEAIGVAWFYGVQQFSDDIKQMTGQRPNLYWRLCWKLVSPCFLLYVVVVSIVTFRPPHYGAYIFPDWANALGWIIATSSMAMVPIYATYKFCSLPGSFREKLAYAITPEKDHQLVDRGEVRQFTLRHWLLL
# TEST METHOD NOTES: Binding affinity was determined against cocaine receptor by measuring the ability of compound to displace bound [3H]-3 from rat caudate-putamen tissue
# Assay type: tissue-based
REPORTED PROPERTY: Ki (nM)

RECORD SMILES: COC(=O)[C@@H]1C2CC[C@H](C[C@@H]1c1ccccc1)N2C
REPORTED PROPERTY: Ki
EXPERIMENTAL VALUE: 314

* * *

# ASSAY TARGET: Sodium-dependent dopamine transporter (Rattus norvegicus, UniProt P23977)
# TEST METHOD NOTES: Tested for its ability to inhibit high affinity uptake of [3H]dopamine into rat caudate-putamen tissue
REPORTED PROPERTY: IC50 (nM)

COMPOUND: CN1C2CC[C@@H]1C[C@H](c1ccccc1)C2CCCO (some centres undefined)
EXPERIMENTAL VALUE: 64
//
COMPOUND: COC(=O)[C@@H]1C2CC[C@H](C[C@@H]1c1ccccc1)N2C
EXPERIMENTAL VALUE: 373
//
COMPOUND: COC(=O)/C=C/C1C2CC[C@H](C[C@@H]1c1ccccc1)N2C (some centres undefined)
EXPERIMENTAL VALUE: 123
//
COMPOUND: COC(=O)CCC1C2CC[C@H](C[C@@H]1c1ccccc1)N2C (some centres undefined)
EXPERIMENTAL VALUE: 166
